Just for reference, the RNAGym collection of RNA variant scans (doi:10.1073/pnas.2313332121) is where these values come from.

B1: TPR 5TU (parent)
chain: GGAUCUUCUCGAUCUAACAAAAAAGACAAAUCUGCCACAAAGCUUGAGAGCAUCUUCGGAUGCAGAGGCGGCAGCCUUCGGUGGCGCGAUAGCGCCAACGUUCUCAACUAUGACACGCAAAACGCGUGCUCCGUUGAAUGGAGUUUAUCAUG

# Variants of: B1
# experiment.notes: polymerase ribozyme fitness, log enrichment relative to wild type (log ratio); higher = more active; in vitro selection for triplet polymerase activity
This sample holds only a part of the variants without activity.
measured.quantity: polymerase ribozyme fitness (log ratio)

Task: Determine its reported polymerase ribozyme fitness (log ratio): G48A C75U C87A C93G
Output: ≤ -4.2

Task: Determine its reported polymerase ribozyme fitness (log ratio): C43U C125G U151G
Output: ≤ -4.2

Task: Determine its reported polymerase ribozyme fitness (log ratio): U15G C69A C96U
Output: -1.09

Task: Determine its reported polymerase ribozyme fitness (log ratio): U53G C95U
Output: -3.07

Task: Determine its reported polymerase ribozyme fitness (log ratio): G59A C93A U135C U146A
Output: -3.8

Task: Determine its reported polymerase ribozyme fitness (log ratio): A52G C63U C93U
Output: -1.7

Task: Determine its reported polymerase ribozyme fitness (log ratio): C8A A16U A17U A26U G80C C87U U139G U151A
Output: ≤ -4.2

Task: Determine its reported polymerase ribozyme fitness (log ratio): G42C U44A C54G A91U C99U G143C U145C
Output: ≤ -4.2

Task: Determine its reported polymerase ribozyme fitness (log ratio): U7G C76A C85G C95A A121U
Output: ≤ -4.2

Task: Determine its reported polymerase ribozyme fitness (log ratio): G59U A91U G141A
Output: ≤ -4.2

Task: Determine its reported polymerase ribozyme fitness (log ratio): A26U C51U C72U A73U C85A C99G G100C U111G
Output: ≤ -4.2
